Values were extracted from the supplement of paper PMC11208160.

experiment: recombinant barcode read abundance after kanamycin selection (control-corrected) (log10(CPM+1)); higher = more efficient recombination; sequences stand for … in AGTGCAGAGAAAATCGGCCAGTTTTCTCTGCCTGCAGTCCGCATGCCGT…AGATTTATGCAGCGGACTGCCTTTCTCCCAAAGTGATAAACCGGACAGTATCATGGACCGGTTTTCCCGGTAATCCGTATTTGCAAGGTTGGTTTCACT; site = the 11-nt target;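 note: IS621 recombinase and bridge RNA in Escherichia coli cells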
READOUT_NAME: recombinant barcode read abundance (log10)

See these solved cases before continuing.
Qu. Please give the documented recombinant barcode read abundance (log10) of TCGGTGACTTGGGTTCTAACCTGTTGCCT (site CCGGTGACTAG)
Ans. 0.0364

Qu. Give the measured recombinant barcode read abundance (log10) for CTCTACTCTTGGGTTCTAACCTGTTGCGT (site CTCTACTCTAC)
Ans. 0.529

Qu. Return recombinant barcode read abundance (log10) (reported value) for this sequence: CGGCTACCTTGGGTTCTAACCTGTTGCCT (site CCGCTACCTAG)
Ans. 0.13

Qu. Report recombinant barcode read abundance (log10) for AGGCTCCCTTGGGTTCTAACCTGTTGCCT (site AGGCTCCCTAG)
Ans. 0.547

Qu. Specify recombinant barcode read abundance (log10) for CCTGGGACTTGGGTTCTAACCTGTTGCGG (site CCTGGGACTTC) and stop.
Ans. 0.474

Please look at the items below and tell me recombinant barcode read abundance (log10) for each one, in order.
1. ACTAAGTCTTGGGTTCTAACCTGTTGCCT (site AGTAAGTCTAG)
2. AGTGTCGCTTGGGTTCTAACCTGTTGCGG (site AGTGTCGCTCC)
3. CTACGAACTTGGGTTCTAACCTGTTGCTG (site CTACGTACTCA)

Ans.
0.0249
1.6
0.142

###

For each of the sequences below, state its recombinant barcode read abundance (log10).
test: recombinant barcode read abundance after kanamycin selection (control-corrected) (log10(CPM+1)); higher = more efficient recombination; sequences stand for … in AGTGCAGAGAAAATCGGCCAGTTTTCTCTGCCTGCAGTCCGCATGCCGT…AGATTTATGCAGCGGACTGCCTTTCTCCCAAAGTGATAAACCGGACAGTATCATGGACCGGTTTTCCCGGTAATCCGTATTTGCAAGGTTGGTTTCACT; site = the 11-nt target

Parameters: items (list). Returns: recombinant barcode read abundance (log10) for each item.
1. ATCGGACCTTGGGTTCTAACCTGTTGCCT (site ATCGGACCTAG)
2. GCCAAACCTTGGGTTCTAACCTGTTGCCT (site GCCAGACCTAG)
3. TCCCACTCTTGGGTTCTAACCTGTTGCCT (site TCTCACTCTAG)
4. GATCGATCTTGGGTTCTAACCTGTTGCGT (site GATCGATCTAC)

Ans.
1. 1.23
2. 0.458
3. 0.0682
4. 1.46

###

test: recombinant barcode read abundance after kanamycin selection (control-corrected) (log10(CPM+1)); higher = more efficient recombination; sequences stand for … in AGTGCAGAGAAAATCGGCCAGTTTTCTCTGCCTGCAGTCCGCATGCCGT…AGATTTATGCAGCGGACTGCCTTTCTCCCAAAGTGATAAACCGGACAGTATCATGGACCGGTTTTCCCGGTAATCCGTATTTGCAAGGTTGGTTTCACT; site = the 11-nt target
Use yes (1) when the recorded recombinant barcode read abundance (log10) is no lower than 0.2; use no (0) when it is lower.

Qu. Could you verify whether the entry TGTAGTCCTTGGGTTCTAACCTGTTGCAT (site TGTAGTCCTAG) shows recombinant barcode read abundance (log10) of no less than 0.2?
Ans. no (0)

Qu. Entry GTTTCTACTTGGGTTCTAACCTGTTGCTA (site ATTTCTACTTC) : is its recombinant barcode read abundance (log10) no less than 0.2?
Ans. no (0)

Qu. Is it the case that GTAGACCCTTGGGTTCTAACCTGTTGCGT (site GTAGACCCTCA) has recombinant barcode read abundance (log10) reaching or exceeding 0.2?
Ans. yes (1)

Qu. # bool: recombinant barcode read abundance (log10) of TAGGCGCCTTGGGTTCTAACCTGTTGCAT (site TAGGCGCCTAT) >= 0.2
Ans. yes (1)

Qu. Can GCGCGTGCTTGGGTTCTAACCTGTTGCCT (site GCGCGTGCTAG) be said to have recombinant barcode read abundance (log10) at or above 0.2?
Ans. yes (1)

Qu. Record ACTAGGACTTGGGTTCTAACCTGTTGCGC (site ACTAGGACTTC) ; criterion: recombinant barcode read abundance (log10) no lower than 0.2. Met?
Ans. no (0)

Qu. Check the entry TTAGACTCTTGGGTTCTAACCTGTTGCCT (site TTAGACTCTAG) : does recombinant barcode read abundance (log10) equal or exceed 0.2?
Ans. yes (1)

Qu. Quick check, recombinant barcode read abundance (log10) >= 0.2? GAAAGTTCTTGGGTTCTAACCTGTTGCCT (site GGAAGTTCTAG)
Ans. no (0)

Qu. Given CCGTAGCCTTGGGTTCTAACCTGTTGCCT (site CCGGAGCCTAG) , state whether its recombinant barcode read abundance (log10) is at least 0.2.
Ans. no (0)

Qu. Please check the record CGTCGCACTTGGGTTCTAACCTGTTGCCT (site CTTCGCACTAG) and state if its recombinant barcode read abundance (log10) is at or above 0.2.
Ans. no (0)
